- System: Acinetobacter baumannii ATCC17961
- test method notes: Antimicrobial susceptibility testing: 90% growth inhibitory concentration (IC90) determination
- Assay type: cell-based
- study conditions: Acinetobacter baumannii ATCC17961; Iso-Sensitest broth; growth by OD 600 nm over 16 h; 90% growth inhibitory concentration; read-out: ATCC 17961 IC90
Where a name gives a salt, the structure may show the parent alone.
Output Y for records whose IC90 is lower than 400 nM, N for records at or above 400 nM.

[[record]]
compound = "Cc1nn(-c2ccc(N)cn2)cc1-c1cnc(C(=O)Nc2ccc(C(=O)N3CCN(C(=O)C4CC[N+](C)(C)CC4)CC3)c(Cl)c2)n1C [Example J3, formate]"
answer_label = "N"

[[record]]
compound = "COCCNc1ccc(-n2cc(-c3cnc(C(=O)Nc4ccc(C(=O)N5CCN(C(=O)C6CC[N+](C)(C)CC6)CC5)c(Cl)c4)n3C)c(C(F)(F)F)n2)nc1 [Example E2, formate]"
answer_label = "Y"

[[record]]
compound = "Cn1c(-c2cn(-c3cnc(N)cn3)nc2C(F)(F)F)cnc1C(=O)Nc1ccc(C(=O)N2CCN(C(=O)C3CC[N+](C)(C)CC3)CC2)c(Cl)c1"
answer_label = "Y"

[[record]]
compound = "CNc1ccc(-n2cc(-c3cnc(C(=O)Nc4ccc(C(=O)N5CCN(C(=O)C[N+]6(C)CCC(O)C6)CC5)c(Cl)c4)n3C)c(C(F)(F)F)n2)nc1 (centres unmarked) [Example E5, formate]"
answer_label = "Y"

[[record]]
compound = "Cn1c(-c2cn(-c3ccc(N)cn3)nc2C#N)cnc1C(=O)Nc1ccc(C(=O)N2CCN(C(=O)C3CC[N+](C)(C)CC3)CC2)c(Cl)c1 [Example J2, 2,2,2-trifluoroacetate]"
answer_label = "N"

[[record]]
compound = "COCCOc1ccc(-n2cc(-c3cnc(C(=O)Nc4ccc(C(=O)N5CCN(C(=O)C6CC[N+](C)(C)CC6)CC5)c(Cl)c4)n3C)c(C(F)(F)F)n2)nc1 [Example G1, formate]"
answer_label = "Y"

[[record]]
compound = "CNC(=O)c1ccc(-n2cc(-c3cnc(C(=O)Nc4ccc(C(=O)N5CCN(C(=O)C6CC[N+](C)(C)CC6)CC5)c(Cl)c4)n3C)c(C(F)(F)F)n2)nc1 [Example A3, formate]"
answer_label = "N"

[[record]]
compound = "Cn1c(-c2cn(-c3ccc(N)cn3)nc2C(F)(F)F)cnc1C(=O)Nc1ccc(C(=O)NCC2CCN(C(=O)C3CC[N+](C)(C)CC3)CC2)c(Cl)c1 [Example D12, formate]"
answer_label = "N"

[[record]]
compound = "Cn1c(-c2cn(-c3ccc(N)cn3)nc2C(F)(F)F)cnc1C(=O)Nc1ccc(C(=O)N2CCN(C(=O)[C@@H]3COCC[N+]3(C)C)CC2)c(Cl)c1 [Example D13, formate]"
answer_label = "N"

[[record]]
compound = "Cc1c[nH]nc1-n1cc(-c2cnc(C(=O)Nc3ccc(C(=O)N4CCN(C(=O)C5CC[N+](C)(C)CC5)CC4)c(Cl)c3)n2C)c(C(F)(F)F)n1 [Example K2, 2,2,2-trifluoroacetate]"
answer_label = "N"

[[record]]
compound = "Cn1c(-c2cn(-c3cc(Cl)c(N)cn3)nc2C(F)(F)F)cnc1C(=O)Nc1ccc(C(=O)N2CCN(C(=O)C3CC[N+](C)(C)CC3)CC2)c(Cl)c1"
answer_label = "Y"


* * *

Each entry below carries its reported IC90.
- Test system: Acinetobacter baumannii ATCC17961
- test method notes: Antimicrobial susceptibility testing: 90% growth inhibitory concentration (IC90) determination
- Type: cell-based
- study conditions: Acinetobacter baumannii ATCC17961; Iso-Sensitest broth; growth by OD 600 nm over 16 h; 90% growth inhibitory concentration; read-out: ATCC 17961 IC90
- Description: Antimicrobial Susceptibility Testing: 90% Growth Inhibitory Concentration (IC90) Determination The in vitro antimicrobial activity of the compounds was determined according to the following procedure: The assay used a 10-points Iso-Sensitest broth medium to measure quantitatively the in vitro activity of the compounds against Acinetobacter baumannii ATCC17961. […] Bacterial cell growth was determined with the measurement of optical density at λ=600 nm each minutes over a time course of 16 h. […]
Structures can show the parent of a compound that is named as a salt.
parameter: IC90 (nM)

[[record]]
compound = "Cc1ccc(-n2cc(-c3cnc(C(=O)Nc4ccc(C(=O)N5CCN(C(=O)C6CC[N+](C)(C)CC6)CC5)c(Cl)c4)n3C)c(C(F)(F)F)n2)nc1 [Example A4, formate]"
parameter = "IC90"
result = 250

[[record]]
compound = "Cn1c(-c2cn(-c3ncccn3)nc2C(F)(F)F)cnc1C(=O)Nc1ccc(C(=O)N2CC[N+](C)(C)CC2)c(Cl)c1"
parameter = "IC90"
result = 5200

[[record]]
compound = "Cn1c(-c2cn(-c3ncccn3)nc2C(F)(F)F)cnc1C(=O)Nc1ccc(C(=O)N2CCN(C(=O)C3CC[N+](C)(CC(N)=O)CC3)CC2)c(Cl)c1 (centres unmarked) [Example C2, formate]"
parameter = "IC90"
result = 1100

[[record]]
compound = "Cn1c(-c2cn(-c3ncccn3)nc2C(F)(F)F)cnc1C(=O)Nc1ccc(C(=O)N2CCN(C(=O)[C@@H]3[C@@H](O)CC[N+]3(C)C)CC2)c(Cl)c1 [Example B3, formate]"
parameter = "IC90"
result = 3800

[[record]]
compound = "Cn1c(-c2cn(-c3ccc(N)cn3)nc2C(F)(F)F)cnc1C(=O)Nc1ccc(C(=O)N2CCN(C(=O)[C@@H]3[C@@H](O)CC[N+]3(C)C)CC2)c(Cl)c1 (racemic) [Example D2, formate]"
parameter = "IC90"
result = 400


* * *

- Test system: Acinetobacter baumannii ATCC17961
- test method notes: Antimicrobial susceptibility testing: 90% growth inhibitory concentration (IC90) determination
- Format: cell-based
- study conditions: Acinetobacter baumannii ATCC17961; Iso-Sensitest broth; growth by OD 600 nm over 16 h; 90% growth inhibitory concentration; read-out: ATCC 17961 IC90
Where a name gives a salt, the structure may show the parent alone.
parameter: IC90 (nM)

[[record]]
compound = "Cn1c(-c2cn(-c3ccc(N)cn3)nc2C(F)(F)F)cnc1C(=O)Nc1ccc(C(=O)N2CCN(C(=O)[C@@H]3[C@@H](Oc4ccc(N)cn4)CC[N+]3(C)C)CC2)c(Cl)c1 [Example D14, formate]"
result = 550

[[record]]
compound = "Cn1c(-c2cn(-c3ccc(N)cn3)nc2C(F)(F)F)cnc1C(=O)Nc1ccc(C(=O)N2CCN(C(=O)[C@@H]3CC[N+](C)(C)C[C@H]3O)CC2)c(Cl)c1 (stereo in doubt) [Example D6, formate]"
result = 370

[[record]]
compound = "Cn1c(-c2cn(-c3ccc(N)c(F)n3)nc2C(F)(F)F)cnc1C(=O)Nc1ccc(C(=O)N2CCN(C(=O)C3CC[N+](C)(C)CC3)CC2)c(Cl)c1 [Example A10]"
result = 510

[[record]]
compound = "Cn1c(-c2cn(-c3ccc(C(N)=O)cn3)nc2C(F)(F)F)cnc1C(=O)Nc1ccc(C(=O)N2CCN(C(=O)C3CC[N+](C)(C)CC3)CC2)c(Cl)c1 [Example A2, formate]"
result = 980

[[record]]
compound = "COCc1c[nH]nc1-n1cc(-c2cnc(C(=O)Nc3ccc(C(=O)N4CCN(C(=O)C5CC[N+](C)(C)CC5)CC4)c(Cl)c3)n2C)c(C(F)(F)F)n1 [Example K3]"
result = 1300

[[record]]
compound = "Cn1c(-c2cn(-c3ccc(N)cn3)nc2C(F)(F)F)cnc1C(=O)Nc1ccc(C(=O)N2CCN(C(=O)[C@@H]3CC(O)CC[N+]3(C)C)CC2)c(Cl)c1 (some centres unmarked) [Example D15]"
result = 550

[[record]]
compound = "Cn1c(-c2cn(-c3ccc(N)cn3)nc2C(F)(F)F)cnc1C(=O)Nc1ccc(C(=O)N[C@H]2[C@@H]3CN(C(=O)[C@@H]4C[C@@H](O)C[N+]4(C)C)C[C@@H]32)c(Cl)c1 [Example D17]"
result = 300

[[record]]
compound = "CNC(=O)CCNc1ccc(-n2cc(-c3cnc(C(=O)Nc4ccc(C(=O)N5CCN(C(=O)C6CC[N+](C)(C)CC6)CC5)c(Cl)c4)n3C)c(C(F)(F)F)n2)nc1 [Example L2]"
result = 330

[[record]]
compound = "Cn1c(-c2cn(-c3ccc(N)cn3)nc2C(F)(F)F)cnc1C(=O)Nc1ccc(C(=O)N2CCN(C(=O)C3(O)CC[N+](C)(C)CC3)CC2)c(Cl)c1 [Example D10, formate]"
result = 330

[[record]]
compound = "Cc1cc(-n2cc(-c3cnc(C(=O)Nc4ccc(C(=O)N5CCN(C(=O)C6CC[N+](C)(C)CC6)CC5)c(Cl)c4)n3C)c(C(F)(F)F)n2)ncc1N [Example A9]"
result = 290

[[record]]
compound = "CNc1ccc(-n2cc(-c3cnc(C(=O)Nc4ccc(C(=O)N5CCN(C(=O)[C@@H]6CC[N+](C)(C)C[C@H]6O)CC5)c(Cl)c4)n3C)c(C(F)(F)F)n2)nc1 [Example E8, formate]"
result = 220

[[record]]
compound = "Cn1c(-c2cn(-c3ccc(CO)cn3)nc2C(F)(F)F)cnc1C(=O)Nc1ccc(C(=O)N2CCN(C(=O)C3CC[N+](C)(C)CC3)CC2)c(Cl)c1 [Example F1, formate]"
result = 390

[[record]]
compound = "Cc1nc(-n2cc(-c3cnc(C(=O)Nc4ccc(C(=O)N5CCN(C(=O)C6CC[N+](C)(C)CC6)CC5)c(Cl)c4)n3C)c(C(F)(F)F)n2)ccc1N [Example A11]"
result = 230

[[record]]
compound = "COc1ccc(-n2cc(-c3cnc(C(=O)Nc4ccc(C(=O)N5CCN(C(=O)[C@@H]6CC[N+](C)(C)C[C@H]6O)CC5)c(Cl)c4)n3C)c(C(F)(F)F)n2)nc1 [Example B5]"
result = 310

[[record]]
compound = "Cn1c(-c2cn(-c3ccc(N)cn3)nc2C(F)(F)F)cnc1C(=O)Nc1ccc(C(=O)N2CCN(C(=O)[C@@H]3CC[N+](C)(C)C[C@@H]3O)CC2)c(Cl)c1 (stereo in doubt) [Example D5, formate]"
result = 240

[[record]]
compound = "CNc1ccc(-n2cc(-c3cnc(C(=O)Nc4ccc(C(=O)N5CCN(C(=O)[C@@H]6[C@@H](O)CC[N+]6(C)C)CC5)c(Cl)c4)n3C)c(C(F)(F)F)n2)nc1 [Example E6, formate]"
result = 370

[[record]]
compound = "COc1ccc(-n2cc(-c3cnc(C(=O)Nc4ccc(C(=O)N5CCN(C(=O)C[N+]6(C)CC[C@@H](O)C6)CC5)c(Cl)c4)n3C)c(C(F)(F)F)n2)nc1 (some centres unmarked) [Example A7, formate]"
result = 550

[[record]]
compound = "Cn1c(-c2cn(-c3ccc(N)cn3)nc2C(F)(F)F)cnc1C(=O)Nc1ccc(C(=O)N2CCN(C(=O)C3CC[N+](C)(C)CC3)CC2)c(Cl)c1 [Example D3, formate]"
result = 150

[[record]]
compound = "Cn1c(-c2cn(-c3ccc(N)cn3)nc2C(F)(F)F)cnc1C(=O)Nc1ccc(C(=O)N2CCC(C(=O)N3CC[N+](C)(C)CC3)CC2)c(Cl)c1 [Example H1, formate]"
result = 610

[[record]]
compound = "Cn1c(-c2cn(-c3ccc(N)cn3)nc2C(F)(F)F)cnc1C(=O)Nc1ccc(C(=O)N2CCN(C(=O)[C@H]3CC[N+](C)(C)C[C@H]3O)CC2)c(Cl)c1 (stereo in doubt) [Example D7, formate]"
result = 400

